Assignment: determine reported pIC50 for the given compounds.
Tested on: MCF7
Test: Antiproliferative activity against human MCF7 cells assessed as inhibition of cell growth incubated for 72 hrs by SRB assay
Format: functional, cell-based
Setup conditions: MCF7, 72 h
pIC50: −log10 of the molar value.

# Structure notation, Reported metric, Obs value
records = [
    ("CC[C@@H]1CN(C)[C@H]2Cc3c([nH]c4ccccc34)[C@H](c3cc4[nH]c5c(c4cc3OC)CCN3C[C@H]4C[C@H](CC)[C@H]3[C@@]5(C(=O)OC)C4)C[C@H]1[C@@H]2C(=O)OC", "pIC50", "> 5.00"),
]

For each entry beneath this line, provide reported pIC50.
1. C/C=C1/CN(C)[C@H]2Cc3c([nH]c4ccccc34)[C@H](c3ccc4[nH]c5c(c4c3)CCN3[C@H]4[C@@H](CC)C[C@H](C[C@@]54C(=O)OC)[C@@H]3CC(C)=O)C[C@H]1[C@@H]2C(=O)OC
2. CC[C@@H]1CN(C)[C@H]2Cc3c([nH]c4ccccc34)[C@H](c3ccc4c5c([nH]c4c3)[C@]3(C(=O)OC)C[C@@H]4C[C@H](CC)[C@@H]3N(CC5)[C@@H]4CCOC)C[C@H]1[C@@H]2C(=O)OC
3. CC[C@@H]1CN(C)[C@H]2Cc3c([nH]c4ccccc34)[C@H](c3cc4[nH]c5c(c4cc3OC)CCN3[C@H](CC(C)=O)[C@H]4C[C@H](CC)[C@H]3[C@@]5(C(=O)OC)C4)C[C@H]1[C@@H]2C(=O)OC

Result:
> 5.00
5.65
> 5.00
